Molecular target: T1, recombinant human CD4 (catalogue number: 514-CD/CF, manufactured by R&D Systems) (human, UniProt P01730 26-390)
T1 construct: Bought protein (R&D Systems); also called recombinant CD4
Assay: SPR, Biacore T100; antibody captured on anti-mouse IgG chip, recombinant human CD4 flowed; 1:1 binding model
endpoint_name: kon (M⁻¹ s⁻¹)
Give bare numbers, in M⁻¹ s⁻¹.

Each of the following entries comes with a recorded value; kindly state kon for each.
1. anti-CD4 rat monoclonal antibody KM4067 (antibody, V domains shown, Rat hybridoma IgG with a kappa light chain) VH: QVKLLQSGAALVKPGASVKMSCKASGYTFTDYWVHWVKQSHGKSLEWIGEIYPNNNTTNFNEKFKGKATLTVDKFTSTAYMELSRLTSEDSAIYYCTRGTVYYGLGYFDHWGQGVMVTVSS VL: DIRMTQSPASLSASLGETVNIECLASEDVYSDLAWYQQKPGKSPQLLIYNANNLQSGVPSRFSGSGSGTRYSLKINSLQSEDVATYFCQQYNNYPPYTFGAGTKLELK
2. anti-CD4 rat monoclonal antibody KM4068 (antibody, V domains shown, Rat hybridoma IgG with a kappa light chain) VH: QVQLKESGPGLVQPSQTLSLTCTVSGLSLTSNSVSWIRQPPGKGLEWMGIIWSNGDTDYNSAIKSRLSISRDTSKSQVFLKMNSLQTEDTAMYFCANPYYGYNFPFDYWGQGVMVTVSS VL: DIQMTQSPASLSASLEEIVTITCKASQGIDNYLSWYQQKPGKSPQLLIYDATSLADGVPSRFSGSRSGTQYSLKISRPQVDDSGIYYCLQSYSTPFTFGSGTKLEIK
3. anti-CD4 rat monoclonal antibody KM4066 (antibody, V domains shown, Rat hybridoma IgG with a kappa light chain) VH: EVQLEESGGGLVQPGRSLKLSCLASGFTFSNYGMNWIRQAPGKGLEWVASISGSSTYIYYADTVKGRFTISRENAENTLYLQMTSLRSEDTALYYCAREGSSTDRYYEVSFAYWGQGTLVTVSS VL: DVVLTQTPVSLSVTLGDQASISCRSSQSLEYSDGYTYLEWYLQKPGQSPQVLIYGVSNRFSGVPDRFIGSGSGTDFTLKISRVEPEDLGVYYCFQATHDPYTFGAGTRLELK
4. anti-CD4 rat monoclonal antibody KM4065 (antibody, V domains shown, Rat hybridoma IgG with a kappa light chain) VH: EVQLVESGGGLVQPGRSMKLSCAASGFTFSNYGMAWVRQAPTKGLEWVATISYDGSITYYRDSVKGRFTISRDHAKSTLYLQMNSLRSEDTATYYCTREEQYSSWYFDFWGPGIMVTVSS VL: DIVLTQSPALAVSLGQRATISCRASQSVSISSHDLMQWYQQKPGQQPKLLIYDAFNLASGIPVRFSGSGSGTDFTLTIDPVQADDIATYYCQQSKDDPYTFGAGTKLELK
5. anti-CD4 rat monoclonal antibody KM4069 (antibody, V domains shown, Rat hybridoma IgG with a kappa light chain) VH: QVQLKESGPGLVQPSQTLSLTCTVSGSSLTSNSVSWIRQPPGKGLEWMGVIWSNGDADYNSAIKSRLSISRDTSKSQVFLKMNSLQTEDTAMYFCASPYYGYYFPFDYWGQGVMVTVSS VL: DIQMTQSPASLSASLEEIVTITCKASQAIDAYLSWYQQKPGKSPQLLIYDATSLADGVPSRFSGSRSGTQYSLKISRPQVDDSGIYYCLQSYSTPFTFGSGTKLEIK

Result string:
[875000, "1.85e+06", "1.34e+06", 357000, "1.21e+06"]
